What quantification limit (QL) was measured for each of the following?
- Study Target: human serum albumin (HSA) (Homo sapiens)
- Sequence (P02768 25-609): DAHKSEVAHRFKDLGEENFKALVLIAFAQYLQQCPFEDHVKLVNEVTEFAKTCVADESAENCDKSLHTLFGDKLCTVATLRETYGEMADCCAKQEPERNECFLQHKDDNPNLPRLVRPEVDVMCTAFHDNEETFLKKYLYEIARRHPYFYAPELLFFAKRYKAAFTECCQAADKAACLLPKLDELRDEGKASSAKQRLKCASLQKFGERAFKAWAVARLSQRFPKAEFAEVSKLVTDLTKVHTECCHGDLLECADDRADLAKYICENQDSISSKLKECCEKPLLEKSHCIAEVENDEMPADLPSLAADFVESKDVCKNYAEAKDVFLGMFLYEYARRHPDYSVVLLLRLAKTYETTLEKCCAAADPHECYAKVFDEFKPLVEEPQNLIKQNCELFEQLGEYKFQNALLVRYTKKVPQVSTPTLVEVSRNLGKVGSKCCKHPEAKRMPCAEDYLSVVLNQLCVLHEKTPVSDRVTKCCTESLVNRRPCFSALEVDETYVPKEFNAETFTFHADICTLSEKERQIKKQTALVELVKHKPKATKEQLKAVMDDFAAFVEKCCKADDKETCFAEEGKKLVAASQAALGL
- Protocol: Fluorometric squaraine-albumin binding titration
- Experimental Parameters: HSA quantification, QL=10σ/S
Could you write the number and then its unit?

Below, each entry is followed by its recorded quantification limit (QL) result.
CC1(C)C(=CC2=C(N)C(=CC3=[N+](CCCc4ccccc4)c4ccccc4C3(C)C)C2=O)N(CCCc2ccccc2)c2ccccc21.[I-]
1079 nM
CNC1=C(C=C2N(CCCc3ccccc3)c3ccccc3C2(C)C)C(=O)C1=CC1=[N+](CCCc2ccccc2)c2ccccc2C1(C)C.[I-]
1401 nM
CC1(C)C(=CC2=C([O-])C(=CC3=[N+](CCCc4ccccc4)c4ccccc4C3(C)C)C2=O)N(CCCc2ccccc2)c2ccccc21
886 nM

Item CC1(C)C(=CC2=C(NCc3ccc4ccc5cccc6ccc3c4c56)C(=CC3=[N+](CCCc4ccccc4)c4ccccc4C3(C)C)C2=O)N(CCCc2ccccc2)c2ccccc21.[I-] has what recorded quantification limit (QL)?
1203 nM

These entries and their values trace back to paper PMC12652113.
